Target: HIV-1 reverse transcriptase (Human immunodeficiency virus type 1 group M subtype B)
Construct: Reverse transcriptase enzyme from the LAV strain of Human Immuno-deficiencyVirus (HIV-1); made in house; host or cells: E. coli JM109 (species of the strain is own knowledge), DNA clone pBRTprtl+ in expression vector pIBI21 (lac promoter)
Assay: Reverse Transcriptase (RT) Assay (RNA-dependent DNA polymerase activity)
Assay type: biochemical, Human Immunodeficiency Virus (HIV-1), LAV strain
Details: 10 μg/ml; poly r(C)/oligo d(G) template, 60 minutes, room temperature; read-out: RT Inhibition (% @ 10 μg/ml)
Classify by inhibition at 10 µg/mL. Ranges: bottom range: < 70%; center range: ≥ 70% and < 90%; top range: ≥ 90%

Bin this entry: CCCN1C(=S)c2ccccc2Oc2ccccc21
top range

Same lookup for CN1C(=O)c2ccc(N)cc2Oc2ccccc21 , please.
bottom range

Do the same for CCN1C(=O)c2ccccc2Oc2ccccc21 please
top range

Check CCCN1C(=O)c2ccccc2Sc2ccccc21 too.
top range

Next: C=CCN1C(=O)c2ccccc2Oc2ccccc21
top range

# repeat for Nc1ccc2c(c1)C(=O)Nc1ccccc1O2
center range

Check NC(=O)CN1C(=O)c2ccccc2Sc2ccccc21 too.
bottom range

Param item: CN1C(=O)c2ccccc2Sc2ccccc21
top range

Next: C=CCN1C(=O)c2cc(N)ccc2Oc2ccccc21
top range

Same again, this time with Cc1ccc2c(c1)Oc1ccccc1C(=O)N2CC(N)=O
center range

Please answer likewise for CSCCN1C(=O)c2ccccc2Oc2ccccc21
center range

Now give it for CN1C(=O)c2ccccc2Oc2ccccc21 too.
top range

Ok, now NC(=O)CN1C(=O)c2cc(N)ccc2Oc2ccccc21
center range

Let us now turn to CCOc1ccc2c(c1)Oc1ccccc1C(=O)N2
bottom range

Further, for CSCCN1C(=O)c2cc(Cl)ccc2Oc2ccccc21 ?
bottom range

Try this compound too: O=C1Nc2ccccc2Sc2ccccc21 [Example 4, Dibenz[b,f][1,4]Thiazepin-11(10H)-One]
bottom range

Could you do the same for CSCCN1C(=O)c2ccc(Cl)cc2Oc2ccccc21 , please?
center range

What about CCOc1ccc2c(c1)Oc1ccccc1C(=O)N2C ?
center range

# repeat for COc1cccc2c1Oc1ccccc1N(CC(N)=O)C2=O
bottom range

Another compound: O=C1c2ccccc2Oc2ccccc2N1CC(F)(F)F
center range

Check CNc1ccc2c(c1)C(=O)N(C)c1ccccc1O2 too.
center range

Same again, this time with COc1ccc2c(c1)Oc1cccc(OC)c1C(=O)N2
bottom range

# repeat for Cc1ccc2c(c1)Oc1ccccc1C(=O)N2C[S+](C)[O-] (centres unmarked)
center range

Also check CC(C)N1C(=O)c2ccccc2Oc2ccccc21
top range

Queued: CCCN1C(=O)c2ccccc2Oc2ccccc21
top range

And then CCN1C(=O)c2cc(N)ccc2Oc2ccccc21 , what is it?
top range

Follow-up item: O=C1c2ccccc2Oc2ccccc2N1CCF
top range

What would you report for Cc1ccc2c(c1)Oc1ccc(N)cc1C(=O)N2 ?
top range

Do the same for CSCN1C(=O)c2ccc(Cl)cc2Oc2ccccc21 please
top range

Queued: C[S+]([O-])CN1C(=O)c2ccccc2Oc2ccccc21 (centres unmarked)
bottom range

Can you check CCN1C(=O)c2cc(N)ccc2Oc2ccc(Cl)cc21 next?
top range

Param item: Nc1ccc2c(c1)Oc1ccccc1NC2=O
bottom range

Same again, this time with Nc1ccc2c(c1)C(=O)Nc1cc(Cl)ccc1O2
bottom range

Another compound to check: CN1C(=O)c2cc(N)ccc2Oc2ccccc21
top range

One more compound: CSCN1C(=O)c2ccccc2Oc2ccccc21
top range

Entry C=C(C)CN1C(=O)c2ccccc2Oc2ccccc21 please
center range

Another compound to look at: CCC(=O)N1C(=O)c2ccccc2Oc2ccccc21
bottom range

Same again, this time with O=C1Nc2ccccc2Oc2ccccc21
bottom range

Same question for COc1ccc2c(c1)Oc1ccccc1C(=O)N2 please.
bottom range

# repeat for CNc1ccc2c(c1)C(=O)Nc1ccccc1O2
bottom range

Try this compound next: CSCCN1C(=O)c2ccccc2Oc2cc(C)ccc21
top range

Input CN1C(=O)c2ccccc2Oc2cc(N)ccc21
bottom range
